# tested target: UGT1A9 (Homo sapiens)
# Sequence (O60656 26-530): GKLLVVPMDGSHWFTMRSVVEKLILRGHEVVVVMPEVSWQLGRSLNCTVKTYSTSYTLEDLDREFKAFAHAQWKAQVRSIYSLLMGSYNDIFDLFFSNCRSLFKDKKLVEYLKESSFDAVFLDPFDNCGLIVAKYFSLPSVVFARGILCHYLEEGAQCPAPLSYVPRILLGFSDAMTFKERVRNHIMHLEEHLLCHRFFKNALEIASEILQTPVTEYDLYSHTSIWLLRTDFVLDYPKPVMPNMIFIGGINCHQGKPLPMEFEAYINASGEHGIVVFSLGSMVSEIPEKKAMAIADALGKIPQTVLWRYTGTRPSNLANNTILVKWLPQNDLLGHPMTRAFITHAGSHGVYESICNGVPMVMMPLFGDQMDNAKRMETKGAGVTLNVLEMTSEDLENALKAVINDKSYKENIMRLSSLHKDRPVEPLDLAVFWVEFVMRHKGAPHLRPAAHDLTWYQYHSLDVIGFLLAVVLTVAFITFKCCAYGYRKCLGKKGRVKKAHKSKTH
pKi: −log10 of the molar value.
quantity: pKi

compound smiles	tested target	test value
COc1cc2c(Nc3ccc(Br)cc3F)ncnc2cc1OCC1CCN(C)CC1	UGT1A9 (Homo sapiens)	5.05

----------
# activity at 30 min, 100 µM annotations
# tested target: UGT1A6 (Homo sapiens)
# Construct: purchased BD Gentest (Woburn, MA); host or cells: baculovirus-infected insect cells
# Sequence (P19224 27-532): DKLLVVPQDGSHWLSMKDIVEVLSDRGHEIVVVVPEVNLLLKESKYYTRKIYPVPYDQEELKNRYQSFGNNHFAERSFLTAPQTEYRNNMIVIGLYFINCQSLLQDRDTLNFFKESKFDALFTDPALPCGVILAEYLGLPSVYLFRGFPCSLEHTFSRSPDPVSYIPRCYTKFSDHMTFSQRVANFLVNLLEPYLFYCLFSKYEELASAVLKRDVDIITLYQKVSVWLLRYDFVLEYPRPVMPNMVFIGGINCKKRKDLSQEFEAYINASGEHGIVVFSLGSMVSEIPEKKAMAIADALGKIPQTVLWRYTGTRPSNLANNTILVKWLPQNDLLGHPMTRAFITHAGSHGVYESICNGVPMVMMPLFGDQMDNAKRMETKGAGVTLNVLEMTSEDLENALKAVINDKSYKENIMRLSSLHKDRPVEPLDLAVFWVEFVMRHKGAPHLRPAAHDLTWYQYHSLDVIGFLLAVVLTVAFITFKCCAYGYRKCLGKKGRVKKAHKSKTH
# experiment: Inhibition of 4-MU glucuronidation by recombinant UGT1A6
# Format: in vitro ADME
# test conditions: recombinant UGT1A6, pH 7.4, probe 4-MU, 100 μM inhibitor, 4-MU substrate, positive control diclofenac, read-out: Remaining activities (%) of UGT1A6

compound smiles	activity at 30 min, 100 µM
O=C(O)Cc1ccccc1Nc1c(Cl)cccc1Cl	28.2%
CNC(=O)c1ccccc1Sc1ccc2c(/C=C/c3ccccn3)n[nH]c2c1	85.8%
CS(=O)(=O)CCNCc1ccc(-c2ccc3ncnc(Nc4ccc(OCc5cccc(F)c5)c(Cl)c4)c3c2)o1	88.4%
COc1cc2c(Nc3ccc(Br)cc3F)ncnc2cc1OCC1CCN(C)CC1	55.1%

----------
# tested target: UniProtKB P22310
# Sequence (P22310 29-534): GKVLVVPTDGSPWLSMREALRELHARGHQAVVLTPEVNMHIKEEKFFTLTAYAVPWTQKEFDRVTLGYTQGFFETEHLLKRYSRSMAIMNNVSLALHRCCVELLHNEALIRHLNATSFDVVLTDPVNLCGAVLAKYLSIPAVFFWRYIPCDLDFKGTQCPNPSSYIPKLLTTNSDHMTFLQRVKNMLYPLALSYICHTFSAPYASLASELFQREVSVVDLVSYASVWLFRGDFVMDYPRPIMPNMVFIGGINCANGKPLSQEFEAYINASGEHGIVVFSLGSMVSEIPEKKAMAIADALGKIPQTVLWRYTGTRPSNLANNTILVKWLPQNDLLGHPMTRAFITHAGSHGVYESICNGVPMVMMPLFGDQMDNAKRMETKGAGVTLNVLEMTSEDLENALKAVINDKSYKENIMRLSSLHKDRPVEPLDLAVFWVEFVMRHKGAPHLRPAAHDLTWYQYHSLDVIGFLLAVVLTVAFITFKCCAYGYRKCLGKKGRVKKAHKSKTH
# experiment: Inhibition of TFP glucuronidation by recombinant UGT1A4
pKi: −log10 of the molar value.

compound smiles	pKi
CS(=O)(=O)CCNCc1ccc(-c2ccc3ncnc(Nc4ccc(OCc5cccc(F)c5)c(Cl)c4)c3c2)o1	4.44

----------
# tested target: UGT1A8 (Homo sapiens)
# Sequence (Q9HAW9 26-530): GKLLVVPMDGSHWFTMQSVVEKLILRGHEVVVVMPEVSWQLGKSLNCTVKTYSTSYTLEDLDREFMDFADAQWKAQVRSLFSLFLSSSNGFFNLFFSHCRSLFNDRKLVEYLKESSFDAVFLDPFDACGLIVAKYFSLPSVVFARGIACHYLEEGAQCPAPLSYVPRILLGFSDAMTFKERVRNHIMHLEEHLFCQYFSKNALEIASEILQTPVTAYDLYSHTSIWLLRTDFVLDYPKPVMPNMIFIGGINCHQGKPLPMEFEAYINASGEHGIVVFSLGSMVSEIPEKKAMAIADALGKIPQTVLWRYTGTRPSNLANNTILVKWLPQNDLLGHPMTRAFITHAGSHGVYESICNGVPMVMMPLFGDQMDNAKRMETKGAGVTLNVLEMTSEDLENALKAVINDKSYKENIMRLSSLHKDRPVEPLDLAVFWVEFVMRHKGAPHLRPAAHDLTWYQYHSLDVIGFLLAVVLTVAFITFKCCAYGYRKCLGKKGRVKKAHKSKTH
# experiment: Inhibition of 4-MU glucuronidation by recombinant UGT1A8
# test conditions: recombinant UGT1A8, pH 7.4, probe 4-MU
This listing pairs compounds with measured activity at 30 min, 100 µM.
quantity: activity at 30 min, 100 µM (%)

compound smiles	tested target	quantity	unit symbol	test value
COc1cc2c(Nc3ccc(Br)cc3F)ncnc2cc1OCC1CCN(C)CC1	UGT1A8 (Homo sapiens)	activity at 30 min, 100 µM	%	56
CS(=O)(=O)CCNCc1ccc(-c2ccc3ncnc(Nc4ccc(OCc5cccc(F)c5)c(Cl)c4)c3c2)o1	UGT1A8 (Homo sapiens)	activity at 30 min, 100 µM	%	73.5
CNC(=O)c1ccccc1Sc1ccc2c(/C=C/c3ccccn3)n[nH]c2c1	UGT1A8 (Homo sapiens)	activity at 30 min, 100 µM	%	54.6
CCCCC1C(=O)N(c2ccccc2)N(c2ccccc2)C1=O	UGT1A8 (Homo sapiens)	activity at 30 min, 100 µM	%	40.2

----------
# tested target: UGT1A9 (Homo sapiens, UniProt O60656)
# Sequence (O60656 26-530): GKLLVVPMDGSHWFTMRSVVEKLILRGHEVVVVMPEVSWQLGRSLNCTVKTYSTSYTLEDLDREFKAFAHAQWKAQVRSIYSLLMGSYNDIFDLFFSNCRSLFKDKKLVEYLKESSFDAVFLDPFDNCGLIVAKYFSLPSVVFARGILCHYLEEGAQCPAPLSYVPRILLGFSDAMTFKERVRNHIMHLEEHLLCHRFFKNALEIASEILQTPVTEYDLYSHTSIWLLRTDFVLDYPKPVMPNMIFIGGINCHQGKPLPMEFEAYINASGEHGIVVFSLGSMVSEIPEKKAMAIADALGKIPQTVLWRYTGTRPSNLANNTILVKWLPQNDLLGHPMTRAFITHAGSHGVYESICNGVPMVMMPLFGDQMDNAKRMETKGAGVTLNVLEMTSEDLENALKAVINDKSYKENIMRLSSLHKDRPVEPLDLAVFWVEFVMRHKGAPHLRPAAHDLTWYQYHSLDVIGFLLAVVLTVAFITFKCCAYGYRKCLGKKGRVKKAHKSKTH
pIC50: −log10 of the molar value.
quantity: pIC50

compound smiles	quantity	test value
COc1cc2c(Nc3ccc(Br)cc3F)ncnc2cc1OCC1CCN(C)CC1	pIC50	5.30
CNC(=O)c1ccccc1Sc1ccc2c(/C=C/c3ccccn3)n[nH]c2c1	pIC50	5.44
